Where do these numbers come from? They come from ChEMBL document CHEMBL1201862.

Test system: MDA-MB-231
RUN_DESCRIPTION: NCI tumour cell line growth inhibition, 48 h
Active and inactive are the calls of the source. Rule as the data show it: active = GI50 up to about 1.1 µM and inactive = higher.
GI50 by entry:

The following molecules have reported results that may help.
CCOC(=O)C1=CC(C)(C(=O)OCC)Nc2c(nc(OC)n(C)c2=O)N1 (configuration not stated) ... > 10 µM (inactive)
CC(=O)Oc1ccc2c(c1)[nH]c1c3ccc(OC(C)=O)cc3oc(=O)c21 ... 29.2 µM (inactive)
O=C1/C(=C/c2ccccc2[N+](=O)[O-])N=C(c2ccccc2)N1c1nc2ccccc2s1 ... 45.9 µM (inactive)
CN1CCN(Cn2nc(COc3ccc(Cl)cc3)n(/N=C/c3ccc(-c4ccc(Cl)cc4Cl)o3)c2=S)CC1 ... 7 µM (inactive)
CC[C@H](C)[C@H](NC(=O)[C@@]1(O)[C@H](O)[C@]2(CC)C=CCN3CC[C@@]4(c5cc(Br)c(OC)cc5N(C)[C@@H]14)[C@@H]32)C(=O)OC ... 15.7 µM (inactive)

Q: Please look up its GI50: CC1C2CC(C(S(=O)(=O)O)C2=O)C1(C)C (configuration not stated)
A: > 100 µM (inactive)

Q: // returns reported GI50 for input CC1(C)[C@@H]2CC[C@@]1(C)C1(S[S+]1[O-])C21Cc2ccccc2C1 (some centres not stated)
A: 17.3 µM (inactive)
